# measuredTarget: T1, human CD3 expressed on cells (Jurkat, a CD3+ human T-cell line; human T cells) (human, UniProt P07766 23-126; P04234 22-100)
# T1 chain 1: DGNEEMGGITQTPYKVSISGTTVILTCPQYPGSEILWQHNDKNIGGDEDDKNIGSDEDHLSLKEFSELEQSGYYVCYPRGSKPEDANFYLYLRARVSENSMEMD
# T1 chain 2: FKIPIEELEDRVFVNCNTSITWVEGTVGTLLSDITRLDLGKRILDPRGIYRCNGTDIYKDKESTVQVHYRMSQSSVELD
# experimentNotes: cell-based or functional assay
valueType: U937 Cytotoxicity Human T-cells [M] (EC50) (M)

# binder, units, readoutValue
rows = [
    ("BS3/20-003 (bispecific antibody, V domains shown) VH 1: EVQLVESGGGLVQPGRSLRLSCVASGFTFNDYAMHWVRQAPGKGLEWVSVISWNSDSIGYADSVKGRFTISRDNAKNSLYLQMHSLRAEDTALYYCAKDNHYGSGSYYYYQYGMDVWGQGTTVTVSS VH 2: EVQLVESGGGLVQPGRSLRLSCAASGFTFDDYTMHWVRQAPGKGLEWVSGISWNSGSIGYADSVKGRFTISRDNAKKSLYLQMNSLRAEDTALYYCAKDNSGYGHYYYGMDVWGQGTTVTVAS VL: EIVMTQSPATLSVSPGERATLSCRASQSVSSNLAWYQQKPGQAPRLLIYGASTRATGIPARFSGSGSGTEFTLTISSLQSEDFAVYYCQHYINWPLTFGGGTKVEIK", "M", "8.1e-11"),
]

All values here come from patent US20260132200A1.
